assay-comment: Pharmacokinetic study in BALB/c mice
Assay type: in vivo
applied-conditions: mouse, plasma, 10 mg kg^−1 (po)
parameter-measured: Cmax (ng/mL)
Write it as a number; the unit ng/mL goes unstated.

Measured Cmax, COc1ccc(C2=N[C@H](c3ccc(Cl)cc3)[C@H](c3ccc(Cl)cc3)N2C(=O)N2CCN(CC(=O)NCCCCCCCCOc3cccc4c3C(=O)N(C3CCC(=O)NC3=O)C4=O)C(=O)C2)c(OC(C)C)c1 (stereo in doubt) [CL144] : 106

====

assay-comment: Pharmacokinetic study in BALB/c mice
Assay type: in vivo
applied-conditions: mouse, plasma, 1.0 mg kg^−1 (iv)
parameter-measured: Cmax (ng/mL)
Respond with the bare value in ng/mL.

The recorded Cmax for entry COc1ccc(C2=N[C@H](c3ccc(Cl)cc3)[C@H](c3ccc(Cl)cc3)N2C(=O)N2CCN(CC(=O)NCCCCCCCCOc3cccc4c3C(=O)N(C3CCC(=O)NC3=O)C4=O)C(=O)C2)c(OC(C)C)c1 (stereo in doubt) equals 1630

====

assay-comment: Pharmacokinetic study in BALB/c mice
Assay type: in vivo
applied-conditions: mouse, plasma, 1 mg kg^−1, intravenous administration
parameter-measured: AUC(0-t) (ng·h/mL)
Report as a plain number; the unit ng·h/mL is understood.

AUC(0-t) for COc1ccc(C2=N[C@H](c3ccc(Cl)cc3)[C@H](c3ccc(Cl)cc3)N2C(=O)N2CCN(CC(=O)NCCCCCCCCOc3cccc4c3C(=O)N(C3CCC(=O)NC3=O)C4=O)C(=O)C2)c(OC(C)C)c1 (stereo in doubt) [CL144] is 532

====

assay-comment: Pharmacokinetic study in BALB/c mice
Format: in vivo
applied-conditions: mouse, plasma, 1.0 mg kg^−1 (iv)
parameter-measured: AUC(0-t) (ng·h/mL)
The reply should contain only the number, in ng·h/mL.

Just so you know, measured AUC(0-t) for COc1ccc(C2=N[C@H](c3ccc(Cl)cc3)[C@H](c3ccc(Cl)cc3)N2C(=O)N2CCN(CC(=O)NCCCCCCCCOc3cccc4c3C(=O)N(C3CCC(=O)NC3=O)C4=O)C(=O)C2)c(OC(C)C)c1 (stereo in doubt) came out at 532

====

assay-comment: Pharmacokinetic study in BALB/c mice
Type: in vivo
applied-conditions: mouse, plasma, 1.0 mg kg^−1 (iv), read-out: V ss
parameter-measured: Vd (L/kg)
Answer with a number only, understood to be in L/kg.

# Vd of COc1ccc(C2=N[C@H](c3ccc(Cl)cc3)[C@H](c3ccc(Cl)cc3)N2C(=O)N2CCN(CC(=O)NCCCCCCCCOc3cccc4c3C(=O)N(C3CCC(=O)NC3=O)C4=O)C(=O)C2)c(OC(C)C)c1 (stereo in doubt) = 0.774

====

assay-comment: Pharmacokinetic study in BALB/c mice
Assay type: in vivo
applied-conditions: mouse, plasma, 10 mg kg^−1 (po)
parameter-measured: Tmax (min)
Respond with the bare value in min.

Kindly note the recorded Tmax for COc1ccc(C2=N[C@H](c3ccc(Cl)cc3)[C@H](c3ccc(Cl)cc3)N2C(=O)N2CCN(CC(=O)NCCCCCCCCOc3cccc4c3C(=O)N(C3CCC(=O)NC3=O)C4=O)C(=O)C2)c(OC(C)C)c1 (stereo in doubt) , which is 49.8

====

assay-comment: Pharmacokinetic study in BALB/c mice
Type: in vivo
applied-conditions: mouse, plasma, 1.0 mg kg^−1 (iv)
parameter-measured: half-life (h)
Report only the number, with the unit h understood.

The measured half-life associated with COc1ccc(C2=N[C@H](c3ccc(Cl)cc3)[C@H](c3ccc(Cl)cc3)N2C(=O)N2CCN(CC(=O)NCCCCCCCCOc3cccc4c3C(=O)N(C3CCC(=O)NC3=O)C4=O)C(=O)C2)c(OC(C)C)c1 (stereo in doubt) reads 1.18
